Molecular target: EGFR (D746-750/C797S) (Homo sapiens, UniProt P00533, C797S/DEL746-750)
Sequence (P00533 with tags, fused parts or gaps DEL746-750/C797S): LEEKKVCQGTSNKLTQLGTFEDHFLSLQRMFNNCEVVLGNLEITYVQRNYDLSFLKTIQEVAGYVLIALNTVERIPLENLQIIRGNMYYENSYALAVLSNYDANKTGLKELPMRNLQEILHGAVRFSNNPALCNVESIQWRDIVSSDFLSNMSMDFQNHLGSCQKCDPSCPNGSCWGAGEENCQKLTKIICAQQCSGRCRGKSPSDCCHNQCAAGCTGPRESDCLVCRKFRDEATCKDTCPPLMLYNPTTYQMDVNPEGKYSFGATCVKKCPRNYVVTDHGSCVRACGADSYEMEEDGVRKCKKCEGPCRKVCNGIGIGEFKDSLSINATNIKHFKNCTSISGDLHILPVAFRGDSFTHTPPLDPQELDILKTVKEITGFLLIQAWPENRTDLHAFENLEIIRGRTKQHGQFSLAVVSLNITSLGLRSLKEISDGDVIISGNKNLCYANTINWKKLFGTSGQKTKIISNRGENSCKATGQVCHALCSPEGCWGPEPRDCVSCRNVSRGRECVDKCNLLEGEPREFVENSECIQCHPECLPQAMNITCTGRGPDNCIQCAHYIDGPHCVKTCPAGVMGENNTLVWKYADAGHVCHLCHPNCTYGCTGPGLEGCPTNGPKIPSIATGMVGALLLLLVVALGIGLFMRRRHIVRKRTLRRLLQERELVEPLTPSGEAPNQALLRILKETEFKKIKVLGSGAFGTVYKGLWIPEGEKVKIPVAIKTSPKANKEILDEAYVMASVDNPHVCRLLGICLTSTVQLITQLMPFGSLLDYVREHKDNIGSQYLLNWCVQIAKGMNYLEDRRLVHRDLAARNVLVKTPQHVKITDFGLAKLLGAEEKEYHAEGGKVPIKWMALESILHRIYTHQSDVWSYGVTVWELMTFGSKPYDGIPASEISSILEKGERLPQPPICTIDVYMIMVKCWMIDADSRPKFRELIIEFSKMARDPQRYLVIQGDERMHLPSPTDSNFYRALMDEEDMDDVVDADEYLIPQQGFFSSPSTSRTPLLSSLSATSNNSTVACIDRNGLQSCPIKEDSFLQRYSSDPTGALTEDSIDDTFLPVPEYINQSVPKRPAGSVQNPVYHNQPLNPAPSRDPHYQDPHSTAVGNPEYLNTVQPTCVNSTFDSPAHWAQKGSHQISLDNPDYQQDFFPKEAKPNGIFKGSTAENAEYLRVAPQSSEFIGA
Experiment: HotSpot radiometric kinase assay, inhibition of EGFR 746-750/C797S mutant
Settings: 33P ATP, room temperature, 120 m
ASSAY READOUT: pIC50
Remember the convention: pIC50 equals -log10 of concentration in molar.

Some compounds with known pIC50 results, for comparison:
| CPD SMILES | TARGET ENTITY | ENDPOINT VALUE |
| --- | --- | --- |
| CC(C)Oc1nn(CCO)c2c1/C=C/c1n[nH]c3cnc(cc13)-c1cnn(C)c1OC[C@H](C)N(C(C)C)C2 | EGFR (D746-750/C797S) (Homo sapiens, UniProt P00533, C797S/DEL746-750) | 8.84 |
| Cc1nn(C)c2c1-c1cc3c(n[nH]c3cn1)/C=C/c1c(OCC#N)nn([C@@H](C)CO)c1CN1CCC[C@@H]1CO2 | EGFR (D746-750/C797S) (Homo sapiens, UniProt P00533, C797S/DEL746-750) | 8.92 |
| Cc1nn(CCO)c2c1/C=C/c1n[nH]c3cnc(cc13)-c1c(C)nn(C)c1O[C@@H](C)CN(C)C2 | EGFR (D746-750/C797S) (Homo sapiens, UniProt P00533, C797S/DEL746-750) | 9.64 |

Now take the following compound into account.
Find the recorded pIC50 belonging to "CCOc1nn([C@@H](C)CO)c2c1/C=C/c1n[nH]c3cnc(cc13)-c1c(C)nn(C)c1O[C@H](C)CN(C)C2" and report it.
9.18

###

Molecular target: EGFR (D746-750) (Homo sapiens, UniProt P00533, DEL746-750)
Sequence (P00533 with tags, fused parts or gaps DEL746-750): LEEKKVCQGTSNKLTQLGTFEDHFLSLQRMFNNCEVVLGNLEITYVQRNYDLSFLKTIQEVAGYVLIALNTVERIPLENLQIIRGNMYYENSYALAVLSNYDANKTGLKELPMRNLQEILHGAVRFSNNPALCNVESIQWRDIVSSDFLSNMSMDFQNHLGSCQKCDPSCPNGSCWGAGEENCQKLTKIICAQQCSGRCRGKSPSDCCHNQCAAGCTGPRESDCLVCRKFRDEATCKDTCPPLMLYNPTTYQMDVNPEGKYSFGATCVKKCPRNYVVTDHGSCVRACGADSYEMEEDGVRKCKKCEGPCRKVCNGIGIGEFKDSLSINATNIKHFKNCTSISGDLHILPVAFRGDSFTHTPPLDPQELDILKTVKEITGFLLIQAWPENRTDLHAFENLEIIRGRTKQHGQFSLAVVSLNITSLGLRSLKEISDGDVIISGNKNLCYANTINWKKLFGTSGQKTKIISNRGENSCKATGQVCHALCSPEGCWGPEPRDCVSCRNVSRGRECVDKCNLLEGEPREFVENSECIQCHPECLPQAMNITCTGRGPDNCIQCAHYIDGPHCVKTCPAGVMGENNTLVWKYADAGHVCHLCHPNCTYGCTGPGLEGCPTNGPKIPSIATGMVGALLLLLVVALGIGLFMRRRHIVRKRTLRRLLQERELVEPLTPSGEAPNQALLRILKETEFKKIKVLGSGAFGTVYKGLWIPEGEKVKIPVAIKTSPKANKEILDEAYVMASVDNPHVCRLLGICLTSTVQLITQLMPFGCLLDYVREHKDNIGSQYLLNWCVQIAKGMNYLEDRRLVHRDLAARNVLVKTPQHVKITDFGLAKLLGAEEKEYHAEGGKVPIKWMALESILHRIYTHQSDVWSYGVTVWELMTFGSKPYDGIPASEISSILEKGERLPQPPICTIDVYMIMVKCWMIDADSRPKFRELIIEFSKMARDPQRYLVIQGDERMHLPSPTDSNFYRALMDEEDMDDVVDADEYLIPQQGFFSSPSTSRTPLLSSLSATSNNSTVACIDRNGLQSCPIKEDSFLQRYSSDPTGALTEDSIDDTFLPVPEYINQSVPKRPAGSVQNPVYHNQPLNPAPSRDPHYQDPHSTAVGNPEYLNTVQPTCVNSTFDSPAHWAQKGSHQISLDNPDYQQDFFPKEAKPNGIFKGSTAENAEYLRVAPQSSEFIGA
Assay: HotSpot radiometric kinase assay, inhibition of EGFR 746-750 mutant
Format: biochemical
Details: 33P ATP, room temperature, 120 m
Decision: IC50 beneath 0.3 nM gives satisfied; IC50 meeting or exceeding 0.3 nM gives not satisfied.

Below are worked cases with known answers.
| CPD SMILES | TARGET ENTITY | CLASS NAME |
| --- | --- | --- |
| CC(C)Oc1nn(CCO)c2c1/C=C/c1n[nH]c3cnc(cc13)-c1cnn(C)c1OC[C@H](C)N(C(C)C)C2 | EGFR (D746-750) (Homo sapiens, UniProt P00533, DEL746-750) | not satisfied |
| CCOc1nn([C@@H](C)CO)c2c1/C=C/c1n[nH]c3cnc(cc13)-c1c(C)nn(C)c1O[C@@H](C)CN(C1CC1)C2 | EGFR (D746-750) (Homo sapiens, UniProt P00533, DEL746-750) | not satisfied |
| CCOc1nn(CCO)c2c1/C=C/c1n[nH]c3cnc(cc13)-c1c(CC)nn(C)c1O[C@@H](C)CN(CC)C2 | EGFR (D746-750) (Homo sapiens, UniProt P00533, DEL746-750) | not satisfied |
| CCOc1nn(CCO)c2c1/C=C/c1n[nH]c3cnc(cc13)-c1c(C)nn(C)c1O[C@@H](C)CN(C)C2 | EGFR (D746-750) (Homo sapiens, UniProt P00533, DEL746-750) | satisfied |
| CCN1Cc2c(c(OCC#N)nn2CCO)/C=C/c2n[nH]c3cnc(cc23)-c2c(C)nn(C)c2O[C@H](C)C1 | EGFR (D746-750) (Homo sapiens, UniProt P00533, DEL746-750) | satisfied |
| CCOc1nn(CCO)c2c1/C=C/c1n[nH]c3cnc(cc13)-c1cnn(C)c1OC[C@H](C)N(CC)C2 | EGFR (D746-750) (Homo sapiens, UniProt P00533, DEL746-750) | satisfied |

API: query returns whether the compound falls strictly under 0.3 nM in IC50. Query: "Cc1nn(C)c2c1-c1cc3c(n[nH]c3c(C)n1)/C=C/c1c(OCC#N)nn(CCO)c1CN(C)C[C@H](C)O2"
not satisfied

Now consider "CCOc1nn(CCO)c2c1/C=C/c1n[nH]c3cnc(cc13)-c1c(C)nn(C)c1OC[C@H](C)N(CC)C2" and answer again.
not satisfied

Now consider "CCOc1nn(CCO)c2c1/C=C/c1n[nH]c3c(C)nc(cc13)-c1cnn(C)c1O[C@H](C)CN(C)C2" and answer again.
satisfied

Now consider "CCOc1nn([C@@H](C)CO)c2c1/C=C/c1n[nH]c3c(C)nc(cc13)-c1cnn(C)c1O[C@@H](C)CN(C)C2" and answer again.
satisfied

Now consider "CCOc1nn([C@@H](C)CO)c2c1/C=C/c1n[nH]c3cnc(cc13)-c1c(C)nn(C)c1OC[C@H](C)N(CC)C2" and answer again.
not satisfied

Now consider "CC(C)Oc1nn(CCO)c2c1/C=C/c1n[nH]c3cnc(cc13)-c1cnn(C)c1O[C@H](C)CN(C(C)C)C2" and answer again.
not satisfied

###

// pIC50 lookup, one value per entry
Tested on: BaF3 cells with engineered EGFR d746-750/T790M
Assay: 3-Day CellTiter Glo (CTG) cell proliferation assay, BaF3 EGFR d746-750/T790M
Assay type: cell-based
Conditions: Mus musculus; BaF3 EGFR d746-750/T790M cells, 3-day CTG proliferation, 72 hours
Remember the convention: pIC50 equals -log10 of concentration in molar.

Some compounds with known pIC50 results, for comparison:
| CPD SMILES | pIC50 |
| --- | --- |
| CCOc1nn(CCO)c2c1/C=C/c1n[nH]c3cnc(cc13)-c1c(CC)nn(C)c1O[C@@H](C)CN(CC)C2 | 8.18 |
| CCN1Cc2c(c(C)nn2CCO)/C=C/c2n[nH]c3cnc(cc23)-c2c(C)nn(C)c2O[C@H](C)C1 | 7.65 |
| CCOc1nn([C@H](C)CO)c2c1/C=C/c1n[nH]c3c(C)nc(cc13)-c1c(C)nn(C)c1O[C@@H](C)CN(C)C2 | 8.67 |
| CCOc1nn(CCO)c2c1/C=C/c1n[nH]c3cnc(cc13)-c1c(C)nn(C)c1O[C@H](C)[C@H]1CCCN1C2 | 8.97 |
| CCNc1nn([C@@H](C)CO)c2c1/C=C/c1n[nH]c3cnc(cc13)-c1c(C)nn(C)c1O[C@@H](C)CN(C)C2 | 8.74 |
| CCN1Cc2c(c(C)nn2CCO)/C=C/c2n[nH]c3cnc(cc23)-c2c(C)nn(C)c2O[C@@H](C)C1 | 8.84 |
| Cc1nn(C)c2c1-c1cc3c(n[nH]c3cn1)/C=C/c1c(OCC#N)nn([C@@H](C)CO)c1CN(C)C[C@H](C)O2 | 8.37 |
| CCOc1nn(CCO)c2c1/C=C/c1n[nH]c3cnc(cc13)-c1c(C)nn(C)c1O[C@@H](C)CN(CC)C2 | 9.24 |

Find the recorded pIC50 belonging to "CCOc1nn([C@@H](C)CO)c2c1/C=C/c1n[nH]c3c(C)nc(cc13)-c1cnn(C)c1O[C@@H](C)CN(C)C2" and report it.
8.98

Now consider "CCOc1nn(CCO)c2c1/C=C/c1n[nH]c3cnc(cc13)-c1c(C)nn(C)c1OC[C@H](C)N(C(C)C)C2" and answer again.
9.15

Now consider "CCOc1nn([C@@H](C)CO)c2c1/C=C/c1n[nH]c3cnc(cc13)-c1c(C)nn(C)c1O[C@@H](C)CN(CC)C2" and answer again.
9.18

Now consider "CCOc1nn(CCO)c2c1/C=C/c1n[nH]c3c(C)nc(cc13)-c1c(C)nn(C)c1O[C@H](C)[C@H]1CCCN1C2" and answer again.
9.17

Now consider "CCN1Cc2c(c(OCC#N)nn2CCO)/C=C/c2n[nH]c3cnc(cc23)-c2c(C)nn(C)c2O[C@H](C)C1" and answer again.
8.67

Now consider "CCOc1nn([C@@H](C)CO)c2c1/C=C/c1n[nH]c3cnc(cc13)-c1c(C)nn(C)c1OC[C@H](C)N(CC)C2" and answer again.
9.20

Now consider "CCOc1nn(CCO)c2c1/C=C/c1n[nH]c3c(C)nc(cc13)-c1c(C)nn(C)c1O[C@@H](C)[C@H]1CCCN1C2" and answer again.
9.06

###

Target: pEGFR, NCI-H1975 cells (L858R/T790M EGFR) (Homo sapiens, UniProt P00533, L858R/T790M)
Construct: pEGFR (Tyr1068) TR-FRET
Sequence (P00533 25-1210 T790M/L858R): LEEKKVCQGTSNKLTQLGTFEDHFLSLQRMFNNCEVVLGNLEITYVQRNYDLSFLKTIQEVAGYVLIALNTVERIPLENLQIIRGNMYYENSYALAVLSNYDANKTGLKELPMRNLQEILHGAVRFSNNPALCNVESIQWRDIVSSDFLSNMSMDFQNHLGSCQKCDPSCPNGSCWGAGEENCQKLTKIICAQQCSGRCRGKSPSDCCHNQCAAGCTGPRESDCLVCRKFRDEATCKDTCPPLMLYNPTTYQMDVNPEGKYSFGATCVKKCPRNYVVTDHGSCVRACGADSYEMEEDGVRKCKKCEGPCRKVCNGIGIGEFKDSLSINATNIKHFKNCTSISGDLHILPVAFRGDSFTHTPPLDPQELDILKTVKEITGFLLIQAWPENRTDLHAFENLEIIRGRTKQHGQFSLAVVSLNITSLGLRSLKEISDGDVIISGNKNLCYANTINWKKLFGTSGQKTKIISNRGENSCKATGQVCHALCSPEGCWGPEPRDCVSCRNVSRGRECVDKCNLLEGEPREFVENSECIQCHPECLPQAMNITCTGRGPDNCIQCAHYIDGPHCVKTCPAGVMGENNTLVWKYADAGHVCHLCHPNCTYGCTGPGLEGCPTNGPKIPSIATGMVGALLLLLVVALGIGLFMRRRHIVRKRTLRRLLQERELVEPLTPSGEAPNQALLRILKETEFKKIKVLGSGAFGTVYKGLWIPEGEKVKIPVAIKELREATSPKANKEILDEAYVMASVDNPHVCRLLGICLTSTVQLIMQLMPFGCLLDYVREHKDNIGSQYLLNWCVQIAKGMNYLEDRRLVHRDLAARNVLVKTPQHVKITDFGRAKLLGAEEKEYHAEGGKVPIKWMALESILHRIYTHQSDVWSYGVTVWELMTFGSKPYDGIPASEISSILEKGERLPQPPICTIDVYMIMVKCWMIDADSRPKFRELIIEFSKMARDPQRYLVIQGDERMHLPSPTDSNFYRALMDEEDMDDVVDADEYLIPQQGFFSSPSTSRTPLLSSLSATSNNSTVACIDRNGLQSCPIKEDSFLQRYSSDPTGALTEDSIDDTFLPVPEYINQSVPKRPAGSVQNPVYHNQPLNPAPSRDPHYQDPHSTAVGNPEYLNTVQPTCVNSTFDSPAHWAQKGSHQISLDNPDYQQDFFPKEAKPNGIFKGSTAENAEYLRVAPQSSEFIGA
Test: Cellular EGFR phosphorylation assay (LANCE Ultra TR-FRET) in NCI-H1975 cells
Type: cell-based
Settings: 4 hours at 37° C., read-out: H1975 pEGFR IC50
ASSAY READOUT: IC50 (nM)
// note: answer is a bare numeric in nM

Find the recorded IC50 belonging to "CCc1nn(CCO)c2c1/C=C/c1n[nH]c3cnc(cc13)-c1c(C)nn(C)c1O[C@@H](C)CN(C)C2" and report it.
2.49

Now consider "Cc1nn(C)c2c1-c1cc3c(n[nH]c3cn1)/C=C/c1c(OCC#N)nn(CCO)c1CN(C)[C@@H](C)CO2" and answer again.
41.6

Now consider "CCN1Cc2c(c(OC(C)C)nn2CCO)/C=C/c2n[nH]c3cnc(cc23)-c2cnn(C)c2O[C@@H](C)C1" and answer again.
4.19

Now consider "Cc1nn(C)c2c1-c1cc3c(n[nH]c3cn1)/C=C/c1c(OCC#N)nn([C@@H](C)CO)c1CN1CCC[C@@H]1CO2" and answer again.
2.79

Now consider "Cc1nn([C@@H](C)CO)c2c1/C=C/c1n[nH]c3c(C)nc(cc13)-c1c(C)nn(C)c1O[C@@H](C)CN(C)C2" and answer again.
10.5

Now consider "CCOc1nn([C@@H](C)CO)c2c1/C=C/c1n[nH]c3cnc(cc13)-c1c(C)nn(C)c1OC[C@@H](C)N(C1CC1)C2" and answer again.
2.08

Now consider "CCOc1nn([C@@H](C)CO)c2c1/C=C/c1n[nH]c3cnc(cc13)-c1c(CC)nn(C)c1O[C@@H](C)CN(C)C2" and answer again.
15

Now consider "CCOc1nn(CCO)c2c1/C=C/c1n[nH]c3cnc(cc13)-c1c(C)nn(C)c1O[C@@H](C)CN(C1CC1)C2" and answer again.
1.58

Now consider "CCOc1nn([C@H](C)CO)c2c1/C=C/c1n[nH]c3cnc(cc13)-c1c(C)nn(C)c1O[C@H](C)CN(C)C2" and answer again.
48.1

Now consider "CCOc1nn([C@@H](C)CO)c2c1/C=C/c1n[nH]c3c(C)nc(cc13)-c1c(C)nn(C)c1O[C@H](C)[C@H]1CCCN1C2" and answer again.
1.54

Now consider "CCOc1nn(CCO)c2c1/C=C/c1n[nH]c3cnc(cc13)-c1c(CC)nn(C)c1O[C@@H](C)CN(CC)C2" and answer again.
5.16

Now consider "CCOc1nn(CCO)c2c1/C=C/c1n[nH]c3cnc(cc13)-c1c(C)nn(C)c1O[C@@H](C)CN(C)C2" and answer again.
1.92

Now consider "CCOc1nn(CCO)c2c1/C=C/c1n[nH]c3cnc(cc13)-c1c(C)nn(C)c1O[C@@H](C)CN(CC)C2" and answer again.
1.86

Now consider "CC(C)Oc1nn(CCO)c2c1/C=C/c1n[nH]c3cnc(cc13)-c1cnn(C)c1O[C@@H](C)CN(C)C2" and answer again.
3.99
